Biological target: BTK enzyme (full-length BTK, hBTK) (Homo sapiens, UniProt Q06187)
Construct: recombinant protein from baculovirus-transfected Sf9 cells: full-length BTK, 6HIS-tag cleaved; 6HIS (cleaved yes)
Sequence (Q06187 whole entry): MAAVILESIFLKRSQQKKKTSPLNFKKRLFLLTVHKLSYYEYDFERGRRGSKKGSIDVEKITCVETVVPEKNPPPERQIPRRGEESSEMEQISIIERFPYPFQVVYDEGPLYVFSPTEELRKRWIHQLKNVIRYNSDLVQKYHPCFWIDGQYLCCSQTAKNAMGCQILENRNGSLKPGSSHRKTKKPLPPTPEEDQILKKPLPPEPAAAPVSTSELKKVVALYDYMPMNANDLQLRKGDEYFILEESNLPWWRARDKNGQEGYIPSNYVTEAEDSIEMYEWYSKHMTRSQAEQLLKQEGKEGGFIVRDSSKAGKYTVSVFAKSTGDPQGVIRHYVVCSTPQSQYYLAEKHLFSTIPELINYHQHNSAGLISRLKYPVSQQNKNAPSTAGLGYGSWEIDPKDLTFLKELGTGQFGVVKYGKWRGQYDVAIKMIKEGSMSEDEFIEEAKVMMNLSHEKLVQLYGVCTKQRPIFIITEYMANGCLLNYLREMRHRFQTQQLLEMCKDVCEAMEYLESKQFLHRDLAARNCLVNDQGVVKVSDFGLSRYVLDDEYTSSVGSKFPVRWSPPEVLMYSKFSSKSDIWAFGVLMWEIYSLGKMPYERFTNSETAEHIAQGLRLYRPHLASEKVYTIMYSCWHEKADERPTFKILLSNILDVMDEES
Assay: Btk enzyme activity assay (LANCE TR-FRET)
Settings: 50 pM hBTK, 25 μM ATP, 60 minute compound and enzyme incubation, read-out: BTK binding IC50
endpointLabel: IC50 (nM)

Look over these answered cases.
CCOc1cc(C(=O)Nc2cc(C(F)(F)F)ccn2)ccc1-c1nc([C@@H]2CC[C@H]3CN4CCC[C@@H]4C(=O)N3C2)n2ccnc(N)c12: 0.462
CCOc1cc(C(=O)Nc2cc(C(F)(F)F)ccn2)ccc1-c1nc([C@H]2CC[C@H]3N(C2)C(=O)C2(CC2)C3(F)F)n2ccnc(N)c12: 11.8
Nc1nccn2c([C@@H]3CC[C@H]4C(=O)C5(CC5)C(=O)N4C3)nc(-c3ccc(C(=O)Nc4cc(C(F)(F)F)ccn4)cc3F)c12: 0.425

1: CCOc1cc(C(=O)Nc2cc(C(F)(F)F)n(C)n2)cc(F)c1-c1nc(C2CCC3N(C2)C(=O)CC32CC2)n2c(F)cnc(N)c12 (stereo not drawn) [Compound 23]
2: CCOc1cc(C(=O)Nc2cc(C(F)(F)F)ccn2)ccc1-c1nc([C@@H]2CC[C@H]3CN4CCC[C@H]4C(=O)N3C2)n2ccnc(N)c12
3: CCOc1cc(C(=O)Nc2cc(C(F)(F)F)ccn2)ccc1-c1nc([C@H]2CC[C@H]3N(C2)C(=O)CC32CC2)n2ccnc(N)c12
4: CCOc1cc(C(=O)Nc2cc(C(F)(F)F)ccn2)ccc1-c1nc(C2CCC3N(C2)C(=O)CNC32CC2)n2ccnc(N)c12 (stereo not drawn) [Compound 39]
5: CCOc1cc(C(=O)Nc2cc(C#N)ccn2)cc(F)c1-c1nc(C2CCC3N(C2)C(=O)CC32CC2)n2c(Cl)cnc(N)c12 (stereo not drawn)
Q: rank_up(items): orders items by reported IC50 in ascending numerical order. Please reply with the labels ordered as requested. Many thanks.
Ans: 5, 4, 2, 3, 1
(5: 0.186 nM, 4: 0.322 nM, 2: 0.489 nM, 3: 3.81 nM, 1: 5.9 nM)

1: CCOc1cc(C(=O)Nc2cc(C(F)(F)F)n(C)n2)c(Cl)cc1-c1nc([C@@H]2CC[C@@H]3N(C2)C(=O)C2(CC2)C3(F)F)n2ccnc(N)c12
2: CCOc1cc(C(=O)Nc2cc(C(F)(F)F)ccn2)ccc1-c1nc(C2CCC3N(C2)C(=O)CNC32CC2)n2ccnc(N)c12 (stereo not drawn) [Compound 42]
Q: Which of the two gives a bigger number for IC50: 1 or 2 ? Reply with the label of the item you choose.
Ans: 1

---

Target: BTK enzyme (full-length BTK, hBTK) (Homo sapiens)
Construct: recombinant protein from baculovirus-transfected Sf9 cells: full-length BTK, 6HIS-tag cleaved; 6HIS (cleaved yes)
Test: Btk enzyme activity assay (LANCE TR-FRET)
Details: 50 pM hBTK, 25 μM ATP, 60 minute compound and enzyme incubation, read-out: BTK binding IC50
pIC50: −log10 of the molar value.
endpointLabel: pIC50

Nc1nccn2c([C@@H]3CC[C@H]4CNC5(CC5)C(=O)N4C3)nc(-c3ccc(C(=O)Nc4cc(C(F)(F)F)ccn4)cc3)c12: 9.76
COc1cc(C(=O)Nc2cc(C(F)(F)F)ccn2)ccc1-c1nc([C@@H]2CC[C@H]3CNC4(CC4)C(=O)N3C2)n2ccnc(N)c12: 9.60
CCOc1cc(C(=O)Nc2cc(C(F)(F)F)n(C)n2)c(F)cc1-c1nc([C@@H]2CC[C@@H]3N(C2)C(=O)C2(CC2)C3(F)F)n2ccnc(N)c12: 8.04
CCOc1cc(C(=O)Nc2cc(C(F)(F)F)n(C)n2)cc(F)c1-c1nc(C2CCC3N(C2)C(=O)CC32CC2)n2c(F)cnc(N)c12 (stereo not drawn) [Compound 22]: 9.57
CCOc1cc(C(=O)Nc2cc(C3CC3)ccn2)cc(F)c1-c1nc([C@@H]2CC[C@@H]3N(C2)C(=O)CC32CC2)n2ccnc(N)c12: 9.80

P: CCOc1cc(C(=O)Nc2cc(C(F)(F)F)ccn2)ccc1-c1nc([C@H]2CN3C(=O)[C@H]4CCCN4C[C@@H]3CO2)n2ccnc(N)c12
Q: CCOc1cc(C(=O)Nc2cc(C(F)(F)F)ccn2)ccc1-c1nc([C@@H]2CC[C@H]3CNC4(CCC4)C(=O)N3C2)n2ccnc(N)c12
Q: Which of the two gives a bigger number for pIC50: P or Q ? Reply with the label of the item you choose.
Ans: Q
(Q: 9.30, P: 8.90)

I: CCOc1cc(C(=O)Nc2cc(C(F)(F)F)ccn2)ccc1-c1nc([C@H]2CC[C@@H]3CC4(CC4)C(=O)N3C2)n2ccnc(N)c12
II: CCOc1cc(C(=O)Nc2cc(C(F)(F)F)ccn2)cc(F)c1-c1nc([C@@H]2CC[C@@H]3N(C2)C(=O)CC32CC2)n2ccnc(N)c12
Q: Which of the two gives a bigger number for pIC50: I or II ? Reply with the label of the item you choose.
Ans: II
(II: 9.77, I: 8.93)

1: Nc1nccn2c([C@@H]3CC[C@H]4C(=O)C5(CC5)C(=O)N4C3)nc(-c3ccc(C(=O)Nc4cc(C(F)(F)F)ccn4)cc3)c12
2: CCOc1cc(C(=O)Nc2cc(C(F)(F)F)ccn2)ccc1-c1nc([C@@H]2CC[C@H]3C(=O)C4(CC4)C(=O)N3C2)n2ccnc(N)c12
Q: Which of the two gives a bigger number for pIC50: 1 or 2 ? Reply with the label of the item you choose.
Ans: 1
(1: 9.07, 2: 8.83)

1: Nc1nccn2c([C@@H]3CC[C@H]4C(O)C5(CC5)C(=O)N4C3)nc(-c3ccc(C(=O)Nc4cc(C5CC5)ccn4)cc3)c12 (stereo partly drawn)
2: CCOc1cc(C(=O)Nc2cc(C#N)ccn2)cc(F)c1-c1nc(C2CCC3N(C2)C(=O)CC32CC2)n2ccnc(N)c12 (stereo not drawn)
Q: Which entry shows the lesser value of pIC50 here, 1 or 2 ? Reply with the label of the item you choose.
Ans: 1
(1: 8.91, 2: 9.65)

P: COc1cc(C(=O)Nc2cc(C(F)(F)F)ccn2)cc(F)c1-c1nc([C@@H]2CC[C@@H]3N(C2)C(=O)C2(CC2)C3(F)F)n2ccnc(N)c12
Q: CCOc1cc(C(=O)Nc2cc(C(F)(F)F)ccn2)ccc1-c1nc([C@@H]2CC[C@H]3[C@@H](O)C4(CC4)C(=O)N3C2)n2ccnc(N)c12
Q: Which entry shows the lesser value of pIC50 here, P or Q ? Reply with the label of the item you choose.
Ans: P
(P: 8.79, Q: 9.15)

P: CCOc1cc(C(=O)Nc2cc(C(F)(F)F)ccn2)ccc1-c1nc([C@@H]2CC[C@@H]3N(C2)C(=O)C2(CC2)C3(F)F)n2ccnc(N)c12 [Compound 27]
Q: CCOc1cc(C(=O)Nc2cc(C(F)(F)F)ccn2)ccc1-c1nc([C@@H]2CC[C@H]3CN(CC)C4(CC4)C(=O)N3C2)n2ccnc(N)c12
R: CCOc1cc(C(=O)Nc2cc(C(F)(F)F)ccn2)ccc1-c1nc([C@@H]2CC[C@@H]3N(C2)C(=O)CC32CC2)n2ccnc(N)c12
S: Nc1nccn2c([C@H]3CC[C@H]4N(C3)C(=O)C3(CC3)C4(F)F)nc(-c3ccc(C(=O)Nc4cc(C(F)(F)F)ccn4)cc3)c12
Q: rank_up(items): orders items by reported pIC50 in ascending numerical order. Please reply with the labels ordered as requested. Many thanks.
Ans: P, S, Q, R

P: Nc1nccn2c([C@@H]3CC[C@H]4C(=O)C5(CC5)C(=O)N4C3)nc(-c3ccc(C(=O)Nc4cc(C5CC5)ccn4)cc3)c12
Q: Nc1nccn2c([C@@H]3CC[C@H]4[C@@H](O)C5(CC5)C(=O)N4C3)nc(-c3ccc(C(=O)Nc4cc(C(F)(F)F)ccn4)cc3F)c12
Q: Which entry shows the lesser value of pIC50 here, P or Q ? Reply with the label of the item you choose.
Ans: P
(P: 8.79, Q: 9.42)

a: CCOc1cc(C(=O)Nc2cc(C(F)(F)F)ccn2)cc(F)c1-c1nc([C@@H]2CC[C@@H]3N(C2)C(=O)C2(CC2)C3(F)F)n2ccnc(N)c12
b: Nc1nccn2c([C@@H]3CC[C@H]4[C@@H](O)C5(CC5)C(=O)N4C3)nc(-c3ccc(C(=O)Nc4cc(C(F)(F)F)ccn4)cc3)c12
Q: Which of the two gives a bigger number for pIC50: a or b ? Reply with the label of the item you choose.
Ans: b

Origin of values: patent US10130630B2
